Test: Relative cell viability in HCHT screening (propidium iodide negative nuclei count)
Assay type: cell-based
Conditions: human, GI50, concentration causing 50% cell growth inhibition
This listing pairs molecules with measured GI50 at 1 h.

Some solved entries appear below for comparison.
molecule	GI50 at 1 h
O=C(O)c1cc(SSc2ccc([N+](=O)[O-])c(C(=O)O)c2)ccc1[N+](=O)[O-] [compound 20, 5,5’-Dithiobis(2-nitrobenzoic acid), reference compound]	> 10000 µM
O=C(O)CCCCC1CCSS1 (stereo not drawn)	> 2000 µM

Kindly consider the entry below.
Consider the molecule C=CCS[S+]([O-])CC=C (stereo not drawn) [compound 25, allicin, reference compound] and give its measured GI50 at 1 h.
> 500 µM
